# Test details: Induction of fetal hemoglobin in human bone marrow derived CD34+ cells incubated for 5 days by FITC staining based flow cytometry analysis
# Type: functional, tissue-based
# Test context: cd34-positive (myeloid/lymphoid) cell
pEC50: −log10 of the molar value.
Observed property: pEC50

Known pEC50 results, listed for orientation:
INSERT INTO results (compound, observed_property, endpoint_result) VALUES
  ('CC(=O)N1CC2(CC(NC(=O)c3cc(-c4ccccc4)no3)C2)C1', 'pEC50', 5.55),
  ('CN(C)C(=O)CCNC(=O)c1cc(C2CCCCC2)no1', 'pEC50', '< 5.30');

q: Record request: pEC50 value, item CC(CNC(=O)c1cc(-c2ccc(F)cc2)no1)C(=O)N(C)C (racemic)
a: < 5.30
